# Target of assay: T1, ZFP SBS#1195 (synthetic)
# T1 chain: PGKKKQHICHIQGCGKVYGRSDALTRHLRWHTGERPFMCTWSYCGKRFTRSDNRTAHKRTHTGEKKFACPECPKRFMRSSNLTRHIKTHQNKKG
# Protocol description: EMSA
# Run conditions: tags: MBP fusion
Property: pKd
Bear in mind: pKd is minus log10 of a mol/L concentration; give just that figure.

Which pKd is listed for GAGAAGGTG (dsDNA) DNA 1: GAGAAGGTG DNA 2: CACCTTCTC ?
8.55
